targetDesc: Alpha-1A adrenergic receptor (Homo sapiens); further: assay procedure not described here
Sequence (P35348 whole entry): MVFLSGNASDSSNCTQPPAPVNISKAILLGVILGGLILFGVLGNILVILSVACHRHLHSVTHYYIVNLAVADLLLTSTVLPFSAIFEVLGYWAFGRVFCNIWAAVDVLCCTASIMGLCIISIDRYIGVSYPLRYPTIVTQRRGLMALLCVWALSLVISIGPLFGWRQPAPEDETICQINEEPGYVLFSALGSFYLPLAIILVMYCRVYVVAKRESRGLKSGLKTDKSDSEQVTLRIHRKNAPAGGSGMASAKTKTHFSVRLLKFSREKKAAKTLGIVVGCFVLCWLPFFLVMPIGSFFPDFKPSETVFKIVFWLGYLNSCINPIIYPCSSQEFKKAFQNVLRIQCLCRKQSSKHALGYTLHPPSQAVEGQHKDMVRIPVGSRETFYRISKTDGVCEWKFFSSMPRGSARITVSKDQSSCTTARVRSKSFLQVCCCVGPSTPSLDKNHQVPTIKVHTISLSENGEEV
readout: AC50

- Cc1cc(-c2ccccc2)nnc1NCCN1CCOCC1 [MINAPRINE]: > 10 µM
- CN[C@@H](C)[C@H](O)c1ccccc1 [EPHEDRINE]: > 10 µM
- CCc1ccc(CCOc2ccc(CC3SC(=O)NC3=O)cc2)nc1 (stereo not given) [PIOGLITAZONE]: > 10 µM
- Cc1c(C(=O)Nc2ccc(N3C[C@@H](C)O[C@@H](C)C3)nc2)cccc1-c1ccc(OC(F)(F)F)cc1 [SONIDEGIB]: > 10 µM
- CCOC(=O)[C@H](CCc1ccccc1)N[C@@H](C)C(=O)N1CCC[C@H]1C(=O)O: > 10 µM
- COc1ccc2cccc(CCNC(C)=O)c2c1 [AGOMELATINE]: > 10 µM
- C#C[C@]1(O)CC[C@H]2[C@@H]3CCc4cc(O)ccc4[C@H]3CC[C@@]21C [ETHINYL ESTRADIOL]: > 10 µM
- NC(=O)c1cnccn1 [PYRAZINAMIDE]: > 10 µM
- CC(C)NCC(O)COc1ccc(COCCOC(C)C)cc1 (stereo not given) [BISOPROLOL]: > 10 µM
- CC(C(=O)O)c1ccc(N2CC=CC2)c(Cl)c1 (stereo not given) [PIRPROFEN]: > 10 µM
